Assign inhibition to each entry below.
target: Tyrosine-protein kinase Yes (Homo sapiens); conditions: at 1 µM;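 further: values are mean percent inhibition of YES kinase activity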
# number only, unit % dropped from output

Ask: Give recorded inhibition. CCn1c(-c2nonc2N)nc2cncc(C(=O)N3CC[C@H](N)C3)c21
Reply: 5.96

Ask: Note down inhibition recorded for COC(=O)Nc1nc2cc(Oc3ccc(NC(=O)Nc4cccc(C(=O)O)c4)cc3)ccc2[nH]1
Reply: 2.43

Ask: Find the measured inhibition of CC1=C(C(=O)Nc2ccc3[nH]ncc3c2)C(c2ccc(F)cc2)NC(=O)N1 (stereo unspecified) and report it.
Reply: 3.94

Ask: Give a short answer stating reported inhibition for Cc1cc(O)cc(C)c1/C=C/c1cncc(-c2nn[nH]n2)c1 .
Reply: 41.3

Ask: Read off the recorded inhibition for COc1ccc(-c2coc3ncnc(N)c23)cc1
Reply: 2.89

Ask: Specify reported inhibition for the compound shown: NC(=O)c1ccc(-c2nc(-c3ccccn3)c(-c3ccc4c(c3)OCO4)[nH]2)cc1
Reply: 7.17

Ask: Determine its reported inhibition: Nc1nc(-c2ccc3c(c2)C(=Cc2cc(Br)c(O)c(Br)c2)C(=O)N3)cs1
Reply: 6.08

Ask: Tell us which inhibition value is on record for O=C1NC(=O)C(c2ccccc2Cl)=C1Nc1cccc(O)c1
Reply: -1.97

Ask: Fill in inhibition for record COc1ccccc1Nc1ncc(-c2ccccc2)o1
Reply: 6.48

Ask: Indicate the recorded inhibition value for this compound: Cc1ccc(NC(=O)c2ccnc(N3CCCC3)c2)cc1-c1ccc(C(=O)NCC2CC2)cc1
Reply: 3.08

Ask: Supply recorded inhibition for COc1ccc(-c2ccncc2)cc1C(N)=O here.
Reply: 3.66

Ask: Give inhibition for NCc1ccc(-c2nc(-c3ccc(Cl)c(O)c3)c(-c3ccncc3)[nH]2)cc1
Reply: 37.7

Ask: Please indicate inhibition recorded for COc1cc2ncn(-c3cc(O[C@H](C)c4ccccc4Cl)c(C(N)=O)s3)c2cc1OC
Reply: 17.8

Ask: Consider the compound O=C1Nc2ccc(C(=O)c3ccco3)cc2C1=Cc1cc(Cl)c(O)c(Cl)c1 . State its measured inhibition.
Reply: 15.8

Ask: Consider the compound CS(=O)(=O)CCNCc1ccc(-c2ccc3ncnc(Nc4ccc(OCc5cccc(F)c5)c(C(F)(F)F)c4)c3c2)o1 . State its measured inhibition.
Reply: 5.19

Ask: Quick one: give measured inhibition for CCCN1CCC(Oc2cc(Nc3nc(Nc4cccc(F)c4C(N)=O)c4cc[nH]c4n3)c(OC)cc2Cl)CC1
Reply: 1.57

Ask: Look up and report measured inhibition for this entry: CC1=C(C(=O)Nc2ccc3[nH]ncc3c2)C(c2ccc3ccccc3c2)CC(=O)N1 (stereo unspecified)
Reply: 62.9

Ask: Give the value of inhibition reported for the following: CS(=O)(=O)CCNCc1ccc(-c2ccc3ncnc(Nc4ccc(OCc5ccccc5)c(Cl)c4)c3c2)o1
Reply: 39.4

Ask: Give the value of inhibition reported for the following: COc1cccc(-n2ncc3c(N/N=C/c4cccc(F)c4)ncnc32)c1
Reply: 31

Ask: Kindly indicate its recorded inhibition. Item: COc1cc2ncn(-c3cc(O[C@@H](C)c4ccccc4Cl)c(C(N)=O)s3)c2cc1OC
Reply: 33.2

Ask: Please report inhibition for the following compound: CNC(=O)c1cncc(/C=C/c2c(Cl)cccc2Cl)c1
Reply: 17.2

###

biological target: NT-3 growth factor receptor (Homo sapiens) (UniProt Q16288); details: at 0.1 µM;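 further: mean percent inhibition of TRKC, reported within the GSK PKIS dataset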
Sequence (Q16288 32-839 limits assumed): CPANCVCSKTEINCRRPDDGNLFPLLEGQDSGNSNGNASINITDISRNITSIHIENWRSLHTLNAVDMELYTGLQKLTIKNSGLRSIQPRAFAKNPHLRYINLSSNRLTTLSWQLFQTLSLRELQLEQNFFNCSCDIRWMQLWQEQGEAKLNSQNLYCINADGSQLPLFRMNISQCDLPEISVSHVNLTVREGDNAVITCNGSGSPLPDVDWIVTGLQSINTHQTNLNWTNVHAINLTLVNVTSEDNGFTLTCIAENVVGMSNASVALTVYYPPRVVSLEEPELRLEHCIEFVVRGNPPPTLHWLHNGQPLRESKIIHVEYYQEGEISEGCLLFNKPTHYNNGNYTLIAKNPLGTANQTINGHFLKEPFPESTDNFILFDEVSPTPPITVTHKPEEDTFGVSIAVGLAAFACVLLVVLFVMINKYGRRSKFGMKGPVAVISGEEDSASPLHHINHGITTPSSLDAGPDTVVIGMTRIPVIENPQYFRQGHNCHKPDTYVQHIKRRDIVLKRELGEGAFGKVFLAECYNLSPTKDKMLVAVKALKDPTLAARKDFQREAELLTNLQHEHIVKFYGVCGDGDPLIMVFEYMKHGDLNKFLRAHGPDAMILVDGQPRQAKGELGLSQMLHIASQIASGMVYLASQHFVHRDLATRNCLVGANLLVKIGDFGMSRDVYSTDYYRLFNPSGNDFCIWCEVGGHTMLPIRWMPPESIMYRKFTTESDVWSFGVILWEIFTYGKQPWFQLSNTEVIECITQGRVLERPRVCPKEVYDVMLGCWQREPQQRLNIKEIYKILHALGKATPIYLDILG
For each entry below, report its inhibition value.
The reply should be a number in %, with the unit left off.

Ask: Query inhibition for CC1=C(C(=O)Nc2ccc3[nH]ncc3c2)C(c2ccc3ccccc3c2)CC(=O)N1 (stereo not given)
Reply: 5.87

Ask: Specify reported inhibition for the compound shown: O=C1NC(=O)C(c2ccc(Cl)cc2)=C1Nc1ccc(Cl)c(C(=O)O)c1
Reply: -1.8

Ask: For Cc1nnc(-c2ccc(C)c(-c3ccc(C(=O)Nc4cccc(C#N)c4)cc3)c2)o1 , write its inhibition.
Reply: -0.42

Ask: Given COC(=O)Nc1nc2cc(Oc3cccc(NC(=O)Nc4cc(C(F)(F)F)ccc4F)c3)ccc2[nH]1 , respond with its inhibition.
Reply: -0.83

Ask: Please indicate inhibition recorded for O=C1NC(=O)C(c2ccccc2Cl)=C1Nc1cccc(O)c1
Reply: 0.46

Ask: Return reported inhibition. Input compound: CC1=C(C(=O)Nc2ccc3[nH]ncc3c2)C(c2ccc(F)cc2)NC(=O)N1 (stereo not given)
Reply: 0.06

Ask: Using known records, supply inhibition for Fc1cccc(COc2ccc(Nc3ncnc4sc(-c5cccs5)cc34)cc2Cl)c1
Reply: 1.21

Ask: Item CNC(=O)c1cncc(/C=C/c2c(Cl)cccc2Cl)c1 : provide inhibition
Reply: 2.24

Ask: Kindly indicate its recorded inhibition. Item: CCCN1CCC(Oc2cc(Nc3nc(Nc4cccc(F)c4C(N)=O)c4cc[nH]c4n3)c(OC)cc2Cl)CC1
Reply: -1.48

Ask: Give inhibition for the following compound: COc1cc2ncn(-c3cc(OCc4ccccc4C(F)(F)F)c(C(N)=O)s3)c2cc1OC
Reply: 5.07
